# Measurement Target: human E-Selectin-IgG-chimera (Homo sapiens, UniProt P16581)
# Construct: fused on or other part: human IgG Fc part, a tag and dimerising handle that is captured by the goat anti-human Fc antibody on the plate
# Sequence (P16581 22-175 limits assumed, change not shown): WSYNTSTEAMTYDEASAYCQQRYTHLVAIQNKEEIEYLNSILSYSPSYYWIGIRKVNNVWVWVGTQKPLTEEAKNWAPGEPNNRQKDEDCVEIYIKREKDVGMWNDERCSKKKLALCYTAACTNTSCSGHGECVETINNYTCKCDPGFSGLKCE
# Method Description: Sialyl Lewis x Tyrosine Sulfate Assay (sLex TSA), E-selectin
# Type: binding
# Test Context: compound at 100 μM, read-out: E-Selectin [% Inhib.]
Decide using inhibition at 100 µM: a value greater than or equal to 50% is criterion met, a smaller one is criterion not met.

{"columns": ["Smi", "Classification"],
 "data": [
  ["O=C(O)Cc1cccc(-c2ccccc2NC(=O)Cc2cc(O)c(O)c(O)c2)c1", "criterion met"],
  ["O=C(O)Cc1ccc(-c2ccccc2NC(=O)Cc2ccc(O)c(O)c2O)s1", "criterion not met"],
  ["O=C(O)Cc1ccc(-c2ccccc2NC(=O)CCc2cc(O)c(O)c(O)c2)s1", "criterion met"],
  ["O=C(Cc1ccc(O)c(O)c1O)Nc1cccc(C(=O)O)c1", "criterion not met"],
  ["O=C(O)Cc1ccc(-c2ccccc2NC(=O)c2cccc(-c3ccc(O)c(O)c3O)c2)s1", "criterion not met"],
  ["O=C(O)Cc1cccc(NC(=O)CCc2cc(O)c(O)c(O)c2)c1", "criterion met"]
]}

###

# Measurement Target: human E-Selectin-IgG-chimera (Homo sapiens)
# Construct: fused on or other part: human IgG Fc part, a tag and dimerising handle that is captured by the goat anti-human Fc antibody on the plate
# Method Description: Sialyl Lewis x Tyrosine Sulfate Assay (sLex TSA), E-selectin

{"columns": ["Compound", "Unit String", "IC50"],
 "data": [
  ["O=C(O)Cc1cccc(-c2ccccc2NC(=O)Cc2cc(O)c(O)c(O)c2)c1", "µM", 4.9],
  ["Cc1ccc(C(=O)O)cc1NC(=O)CCc1ccc(O)c(O)c1O", "µM", 7.3],
  ["O=C(CCc1cc(O)c(O)c(O)c1)NCC1CCC(C(=O)O)CC1 (stereo not drawn)", "µM", 3.1],
  ["O=C(O)Cc1cccc(NC(=O)CCc2cc(O)c(O)c(O)c2)c1", "µM", 2.3],
  ["Cc1ccc(C(=O)O)cc1NC(=O)CCc1cc(O)c(O)c(O)c1", "µM", 1.3],
  ["O=C(Cc1cc(O)c(O)c(O)c1)NCC1CCC(C(=O)O)CC1 (stereo not drawn)", "µM", 3]
]}

###

# Measurement Target: human E-Selectin-IgG-chimera (Homo sapiens, UniProt P16581)
# Construct: fused on or other part: human IgG Fc part, a tag and dimerising handle that is captured by the goat anti-human Fc antibody on the plate
# Method Description: Sialyl Lewis x Tyrosine Sulfate Assay (sLex TSA), E-selectin
# Type: binding
# Test Context: compound at 100 μM, read-out: E-Selectin [% Inhib.]
Measured inhibition at 100 µM accompanies every entry in the list below.

{"columns": ["Molecule", "inhibition at 100 µM"],
 "data": [
  ["COC(=O)Cc1cccc(-c2ccccc2NC(=O)CCc2cc(O)c(O)c(O)c2)c1 [Compound 73]", "54%"],
  ["Cc1c(NC(=O)CCc2cc(O)c(O)c(O)c2)cccc1C(=O)O [Compound 117]", "94%"],
  ["Cc1ccc(C(=O)O)cc1NC(=O)CCc1ccc(O)c(O)c1O [Compound 116]", "92%"],
  ["COC(=O)c1ccccc1NC(=O)Cc1ccc(O)c(O)c1O [Compound 93]", "20%"]
]}
